Test: Standard test for evaluation of inhalation anesthetics (rotating drum, 10 minutes exposure; AC50, LC50, AI)
Assay type: in vivo, mice
Settings: mouse, in vivo, inhaled or intranasal, calculated from AC50 and LC50, mice; read-out: AI (anesthetic index)
Field: selectivity ratio at 10 min. Provide a value for each of the molecules that follow.

Worked examples follow.
[[record]]
molecule = "FC1(F)CC(Cl)C1(F)Br (stereo not shown) [Example X]"
value_measured = "≥ 2.5"

[[record]]
molecule = "FC1C(Cl)CC1(F)F (stereo not shown) [IV, 1-chloro-2,3,3-trifluorocyclobutane]"
value_measured = "≥ 4"

[[record]]
molecule = "FC1(F)CC(F)(Cl)C1(F)F (stereo not shown) [V]"
value_measured = 5

[[record]]
molecule = "FC1(F)CCC1(F)Br (stereo not shown) [VIII, 1-bromo-1,2,2-trifluorocyclobutane]"
value_measured = "≥ 7"

[[record]]
molecule = "FC1(F)CC(Cl)C1(F)Cl (stereo not shown) [I, b.p. 107°C]"
value_measured = 6


I'm hoping you can list selectivity ratio at 10 min for every molecule here, please.
1. FC1(F)CC(F)(Cl)C1(F)Cl (stereo not shown) [III]
2. FC1(F)CC(Cl)(Cl)C1(F)Cl (stereo not shown) [XIII, reference compound]

Result:
≥ 1
5

Please report selectivity ratio at 10 min for every entry that follows.
1. FC1(F)CCC1(F)F [Example XII, 1,1,2,2-tetrafluorocyclobutane, reference compound]
2. FC1CC(F)(F)C1Cl (stereo not shown) [VI, 1-chloro-2,4,4-trifluorocyclobutane]
3. FC(F)(F)C(Cl)Br (stereo not shown) [halothane, reference compound]
4. FC1CC(F)(F)C1(F)Cl (stereo not shown) [II, 1-chloro-1,2,2,4-tetrafluorocyclobutane]
5. CC1CC(F)(F)C1(F)Br (stereo not shown) [IX]
6. FC1CCC1(F)F (stereo not shown) [VII, 1,2,2-trifluorocyclobutane]

Result:
1. 3
2. ≥ 2
3. ~3
4. ≥ 6
5. ≥ 1.5
6. ≥ 2
